Task for the reader: assign each of the following compounds its reported Cell viability as percentage of cell control (mean absorbance / CELL).
# System: Vero (ATCC CCL-81) cell line
# protocol notes: Cytotoxicity MTT assay (CC50)
# experimental context: Vero cells; compound 100 µM

In the examples that follow, each entry is paired with its recorded Cell viability as percentage of cell control (mean absorbance / CELL).
compound	observed
O=C(Nc1nc2cccnc2[nH]1)c1ccccc1NS(=O)(=O)c1ccc(Cl)cc1 [Compound 1]	20.1848
O=C(Nc1nc2cnccc2[nH]1)c1ccccc1NS(=O)(=O)c1ccc(F)cc1 [Compound 3]	56.6548
O=C(Nc1nc2cccnc2[nH]1)c1ccccc1NS(=O)(=O)c1ccc(F)cc1 [Compound 2]	25.9519
COc1cccc2nc(C(=O)c3ccccc3NS(=O)(=O)c3ccc(F)c(C)c3)[nH]c12 [Compound 12]	10
Cc1ccc(S(=O)(=O)Nc2ccccc2C(=O)Nc2nc3ccccc3[nH]2)cc1 [Compound 7]	40.3696
O=C(Nc1nc2cccc(Cl)c2[nH]1)c1ccccc1NS(=O)(=O)c1ccc(F)cc1 [Compound 5]	15.1318

# return Cell viability as percentage of cell control (mean absorbance / CELL) for each item in the list
1. O=C(Nc1nc2ccccc2[nH]1)c1ccccc1NS(=O)(=O)c1ccc(Cl)cc1 [Compound 6]
2. O=C(Nc1nc2cnccc2[nH]1)c1ccccc1NS(=O)(=O)c1ccc(Cl)cc1 [Compound 4]
3. COc1cccc2sc(NC(=O)c3ccccc3CS(=O)(=O)c3ccccc3)nc12 [Compound 8]

-- reply
[48.6633, 25.183, 17.0602]

-- ask Request - read-out Cell viability as percentage of cell control (mean absorbance / CELL) | tested on Vero (ATCC CCL-81) cell line | compound Cc1cc(C(=O)c2ccccc2NS(=O)(=O)c2ccc(F)cc2)nn1-c1ccccc1 [Compound 13]
-- reply 12.8704

* * *

# measured on: ZIKV NS2B-NS3pro (Zika virus, UniProt A0A024B7W1, C1582S/C1645S/R1467A/R1531G)
# protocol notes: ZIKV NS2B-NS3pro inhibitory assay with fluorogenic substrate Bz-Nle-Lys-Lys-Arg-AMC
# Assay type: biochemical
# experimental context: compound 100 µM; 10 min preincubation with enzyme; 0.005% Tween-20; enzyme 0.2 nM
Field: % ZIKV NS2B/NS3pro Inhibition (100 µM) With Preincubation. Provide a value for each of the compounds that follow.
One number for each entry, in %.

Cc1ccc(S(=O)(=O)Nc2ccccc2C(=O)Nc2nc3ccccc3[nH]2)cc1 100
Cc1cc(C(=O)c2ccccc2NS(=O)(=O)c2ccc(F)cc2)nn1-c1ccccc1 95
COc1cccc2nc(C(=O)c3ccccc3NS(=O)(=O)c3ccc(F)c(C)c3)[nH]c12 100

Please look at the items below and tell me % ZIKV NS2B/NS3pro Inhibition (100 µM) With Preincubation for each one, in order.
1. O=C(Nc1nc2cnccc2[nH]1)c1ccccc1NS(=O)(=O)c1ccc(Cl)cc1
2. O=C(Nc1nc2cccnc2[nH]1)c1ccccc1NS(=O)(=O)c1ccc(F)cc1
3. O=C(Nc1nc2cccc(Cl)c2[nH]1)c1ccccc1NS(=O)(=O)c1ccc(F)cc1
4. O=C(Nc1nc2ccccc2[nH]1)c1ccccc1NS(=O)(=O)c1ccc(Cl)cc1
5. O=C(Nc1nc2cccnc2[nH]1)c1ccccc1NS(=O)(=O)c1ccc(Cl)cc1

-- reply
1. 100
2. 100
3. 100
4. 100
5. 100

* * *

# measured on: ZIKV NS2B-NS3pro (Zika virus, UniProt A0A024B7W1, C1582S/C1645S/R1467A/R1531G)
# protocol notes: ZIKV NS2B-NS3pro inhibitory assay with fluorogenic substrate Bz-Nle-Lys-Lys-Arg-AMC
# Type: biochemical
# experimental context: compound 100 µM; no preincubation; 0.005% Tween-20
measurement label: % ZIKV NS2B/NS3pro Inhibition (100 µM) Without Preincubation (%)
Answers are plain numbers, in %.

COc1cccc2nc(C(=O)c3ccccc3NS(=O)(=O)c3ccc(F)c(C)c3)[nH]c12 91
O=C(Nc1nc2ccccc2[nH]1)c1ccccc1NS(=O)(=O)c1ccc(Cl)cc1 99

Can you give me % ZIKV NS2B/NS3pro Inhibition (100 µM) Without Preincubation for all of these, one by one?
1. O=C(Nc1nc2cccnc2[nH]1)c1ccccc1NS(=O)(=O)c1ccc(Cl)cc1
2. O=C(Nc1nc2cnccc2[nH]1)c1ccccc1NS(=O)(=O)c1ccc(Cl)cc1
3. O=C(Nc1nc2cccc(Cl)c2[nH]1)c1ccccc1NS(=O)(=O)c1ccc(F)cc1
4. O=C(Nc1nc2cnccc2[nH]1)c1ccccc1NS(=O)(=O)c1ccc(F)cc1
5. Cc1ccc(S(=O)(=O)Nc2ccccc2C(=O)Nc2nc3ccccc3[nH]2)cc1

-- reply
1. 100
2. 100
3. 100
4. 56
5. 90

Could you tell me % ZIKV NS2B/NS3pro Inhibition (100 µM) Without Preincubation for each of these compounds? They are listed below.
1. Cc1cc(C(=O)c2ccccc2NS(=O)(=O)c2ccc(F)cc2)nn1-c1ccccc1
2. O=C(Nc1nc2cccnc2[nH]1)c1ccccc1NS(=O)(=O)c1ccc(F)cc1

-- reply
1. 100
2. 100

* * *

# measured on: ZIKV NS2B-NS3pro (Zika virus, UniProt A0A024B7W1, C1582S/C1645S/R1467A/R1531G)
# protocol notes: ZIKV NS2B-NS3pro inhibitory assay with fluorogenic substrate Bz-Nle-Lys-Lys-Arg-AMC
# Assay type: biochemical
# experimental context: compound 100 µM; 0.001% Triton X-100, no Tween-20; 10 min preincubation
What % ZIKV NS2B/NS3pro Inhibition (100 µM) 0.001% Triton was measured for each of the following?

Worked examples follow.
COc1cccc2nc(C(=O)c3ccccc3NS(=O)(=O)c3ccc(F)c(C)c3)[nH]c12 90 ± 5%
O=C(Nc1nc2cccnc2[nH]1)c1ccccc1NS(=O)(=O)c1ccc(Cl)cc1 93 ± 8%
O=C(Nc1nc2ccccc2[nH]1)c1ccccc1NS(=O)(=O)c1ccc(Cl)cc1 89 ± 6%
O=C(Nc1nc2cnccc2[nH]1)c1ccccc1NS(=O)(=O)c1ccc(Cl)cc1 93 ± 8%

// for each compound below, give its % ZIKV NS2B/NS3pro Inhibition (100 µM) 0.001% Triton
1. O=C(Nc1nc2cccc(Cl)c2[nH]1)c1ccccc1NS(=O)(=O)c1ccc(F)cc1
2. O=C(Nc1nc2cccnc2[nH]1)c1ccccc1NS(=O)(=O)c1ccc(F)cc1
3. Cc1cc(C(=O)c2ccccc2NS(=O)(=O)c2ccc(F)cc2)nn1-c1ccccc1
4. Cc1ccc(S(=O)(=O)Nc2ccccc2C(=O)Nc2nc3ccccc3[nH]2)cc1

-- reply
1: 93 ± 3%; 2: 94 ± 7%; 3: 100 ± 0%; 4: 88 ± 5%

* * *

I'd be grateful if you could share measured Hill Slope Replica 2 for these entries.
# measured on: ZIKV NS2B-NS3pro (Zika virus, UniProt A0A024B7W1, C1582S/C1645S/R1467A/R1531G)
# protocol notes: ZIKV NS2B-NS3pro inhibitory assay with fluorogenic substrate Bz-Nle-Lys-Lys-Arg-AMC
# Format: biochemical
# experimental context: from dose-response curve, replica 2
Answers are plain numbers.

See these solved cases before continuing.
compound	Hill Slope Replica 2
Cc1cc(C(=O)c2ccccc2NS(=O)(=O)c2ccc(F)cc2)nn1-c1ccccc1 [Compound 13]	5.334
O=C(Nc1nc2cccc(Cl)c2[nH]1)c1ccccc1NS(=O)(=O)c1ccc(F)cc1 [Compound 5]	1.731
O=C(Nc1nc2cnccc2[nH]1)c1ccccc1NS(=O)(=O)c1ccc(Cl)cc1 [Compound 4]	0.5347
Cc1ccc(S(=O)(=O)Nc2ccccc2C(=O)Nc2nc3ccccc3[nH]2)cc1 [Compound 7]	1.056
O=C(Nc1nc2cccnc2[nH]1)c1ccccc1NS(=O)(=O)c1ccc(Cl)cc1 [Compound 1]	1.585

State recorded Hill Slope Replica 2 for all listed compounds.
1. O=C(Nc1nc2cccnc2[nH]1)c1ccccc1NS(=O)(=O)c1ccc(F)cc1 [Compound 2]
2. COc1cccc2nc(C(=O)c3ccccc3NS(=O)(=O)c3ccc(F)c(C)c3)[nH]c12 [Compound 12]
3. O=C(Nc1nc2ccccc2[nH]1)c1ccccc1NS(=O)(=O)c1ccc(Cl)cc1 [Compound 6]

-- reply
1. 4.089
2. 1.742
3. 4.362
